Record form. Attribute: IC50. Fill in for each entry.
target: prolipoprotein diacylglyceryl transferase, Lgt (Escherichia coli); construct: Expression, purification, and in vitro Lgt biochemical assay were conducted as described by Diao et al; made in house; experiment: In vitro Lgt biochemical assay (phosphatidylglycerol and Pal-IAAC peptide substrates); parameters: species or system E. coli; details: Lgt purified using DDM lipid matrix; read-out: in vitro Lgt inhibition DDM-Lgt IC50
Sequence (P60955 whole entry): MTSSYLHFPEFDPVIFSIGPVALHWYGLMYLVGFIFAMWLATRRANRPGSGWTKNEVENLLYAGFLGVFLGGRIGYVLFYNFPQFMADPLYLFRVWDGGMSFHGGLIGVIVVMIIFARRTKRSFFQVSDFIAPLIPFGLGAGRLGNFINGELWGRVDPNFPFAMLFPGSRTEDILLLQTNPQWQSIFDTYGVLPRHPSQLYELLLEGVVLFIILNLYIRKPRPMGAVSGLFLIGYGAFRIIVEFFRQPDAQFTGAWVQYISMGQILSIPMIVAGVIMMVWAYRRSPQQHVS
Report as a plain number; the unit µM is understood.

Q) Note down IC50 recorded for COc1ccc(C(=O)O/N=C(\c2cccs2)C(C)(C)C)cc1N
A) 57.3

Q) Hello, please tell me recorded IC50 for this one: CC(C)(C)/C(=N/OC(=O)c1cncs1)c1cccs1
A) 7.68

Q) Kindly indicate its recorded IC50. Item: COc1cc(OC)cc(C(=O)O/N=C(\c2cccs2)C(C)(C)C)c1
A) 58.7

Q) Given CC(C)(C)/C(=N/OC(=O)c1cccnc1)c1cccs1 , respond with its IC50.
A) 3.54

Q) # return recorded IC50 for input Cn1cncc1C(=O)O/N=C(\c1cccs1)C(C)(C)C
A) 7.78

Q) Complete the entry with IC50 for COc1ccc(C(=O)O/N=C(\c2cccs2)C(C)(C)C)c(F)c1
A) 0.77
